Recorded Activity values for a group of molecules are listed next.
tested on: Mus musculus; assay: Dermal toxicity in CBA/Ca mouse assessed as skin sensitization stimulation index by measuring increase in [3H]thymidine incorporation at 5% w/v administered on ear dorsum by local lymph node assay relative to control; format: organism-based, Skin of body; conditions: in vivo, topical_or_ocular
READOUT_KIND: Activity

GIVEN_SMILES: CC1=C/C(=N/O)CCC1
VALUE_MEASURED: 5.06
--
GIVEN_SMILES: CC1=CCCC/C1=N\O
VALUE_MEASURED: 5.03
--
GIVEN_SMILES: O/N=C\c1ccccc1
VALUE_MEASURED: 1.55
--
GIVEN_SMILES: C/C=C/C(CC)=N/O
VALUE_MEASURED: 1.69
--
GIVEN_SMILES: CC1=C(C)/C(=N/O)CCC1
VALUE_MEASURED: 1.43
--
GIVEN_SMILES: ON=C1CCCCC1
VALUE_MEASURED: 0.77
--
GIVEN_SMILES: O/N=C1/C=CCCC1
VALUE_MEASURED: 7.6

---

Recorded Activity values for a group of compounds are listed next.
assay: Dermal toxicity in CBA/Ca mouse assessed as skin sensitization stimulation index by measuring increase in [3H]thymidine incorporation at 10% w/v administered on ear dorsum by local lymph node assay relative to control; parameters: species or system Skin of body; conditions: in vivo, topical_or_ocular

GIVEN_SMILES: CC1=C(C)/C(=N/O)CCC1
Activity: 1.16
//
GIVEN_SMILES: ON=C1CCCCC1
Activity: 1.17
//
GIVEN_SMILES: C/C=C/C(CC)=N/O
Activity: 3.34
//
GIVEN_SMILES: O/N=C\c1ccccc1
Activity: 2.33
//
GIVEN_SMILES: CC1=C/C(=N/O)CCC1
Activity: 5.34
//
GIVEN_SMILES: CC1=CCCC/C1=N\O
Activity: 7.91

---

test system: Mus musculus; assay: Dermal toxicity in CBA/Ca mouse assessed as skin sensitization stimulation index by measuring increase in [3H]thymidine incorporation at 20% w/v administered on ear dorsum by local lymph node assay relative to control; type: organism-based, Skin of body; conditions: in vivo, topical_or_ocular
Mark criterion met for reported Activity of 3 or greater; mark criterion not met for anything smaller.

GIVEN_SMILES: C/C=C/C(CC)=N/O
LABEL: criterion met
//
GIVEN_SMILES: CC1=CCCC/C1=N\O
LABEL: criterion met
//
GIVEN_SMILES: CC1=C/C(=N/O)CCC1
LABEL: criterion met
//
GIVEN_SMILES: ON=C1CCCCC1
LABEL: criterion not met
//
GIVEN_SMILES: O/N=C\c1ccccc1
LABEL: criterion not met
//
GIVEN_SMILES: CC1=C(C)/C(=N/O)CCC1
LABEL: criterion not met

---

test system: Mus musculus; test: Dermal toxicity in CBA/Ca mouse assessed as skin sensitization stimulation index by measuring increase in [3H]thymidine incorporation at 0.1% w/v administered on ear dorsum by local lymph node assay relative to control; type: organism-based, Skin of body; settings: in vivo, topical_or_ocular

COMPOUND: ON=C1CCCCC1 [CYCLOHEXANONE OXIME]
Activity: 0.96
--
COMPOUND: CC1=CCCC/C1=N\O
Activity: 1
--
COMPOUND: CC1=C/C(=N/O)CCC1
Activity: 0.76
--
COMPOUND: O/N=C1/C=CCCC1
Activity: 1.54
--
COMPOUND: O/N=C\c1ccccc1
Activity: 1.75
--
COMPOUND: C/C=C/C(CC)=N/O
Activity: 0.99
--
COMPOUND: CC1=C(C)/C(=N/O)CCC1
Activity: 1.1

---

species: Mus musculus; assay: Dermal toxicity in CBA/Ca mouse assessed as drug level inducing 3 times increase in skin sensitization stimulation index by measuring [3H]thymidine incorporation relative to control; type: organism-based; settings: in vivo
READOUT_KIND: Activity (mM)

GIVEN_SMILES: O/N=C1/C=CCCC1
READOUT_KIND: Activity
RESULT_UNIT: mM
LIMIT_QUALIFIER: =
VALUE_MEASURED: 55
//
GIVEN_SMILES: CC1=CCCC/C1=N\O
READOUT_KIND: Activity
RESULT_UNIT: mM
LIMIT_QUALIFIER: =
VALUE_MEASURED: 160
//
GIVEN_SMILES: ON=C1CCCCC1
READOUT_KIND: Activity
RESULT_UNIT: mM
LIMIT_QUALIFIER: >
VALUE_MEASURED: 1800
//
GIVEN_SMILES: CC1=C/C(=N/O)CCC1
READOUT_KIND: Activity
RESULT_UNIT: mM
LIMIT_QUALIFIER: =
VALUE_MEASURED: 180
//
GIVEN_SMILES: C/C=C/C(CC)=N/O
READOUT_KIND: Activity
RESULT_UNIT: mM
LIMIT_QUALIFIER: =
VALUE_MEASURED: 790
//
GIVEN_SMILES: CC1=C(C)/C(=N/O)CCC1
READOUT_KIND: Activity
RESULT_UNIT: mM
LIMIT_QUALIFIER: >
VALUE_MEASURED: 1400
//
GIVEN_SMILES: O/N=C\c1ccccc1
READOUT_KIND: Activity
RESULT_UNIT: mM
LIMIT_QUALIFIER: >
VALUE_MEASURED: 1700

---

tested on: Mus musculus; assay: Dermal toxicity in CBA/Ca mouse assessed as skin sensitization stimulation index by measuring increase in [3H]thymidine incorporation at 1% w/v administered on ear dorsum by local lymph node assay relative to control; type: organism-based, Skin of body; settings: in vivo, topical_or_ocular

COMPOUND: CC1=CCCC/C1=N\O
MEASURED_TARGET: Mus musculus
Activity: 2.36
//
COMPOUND: O/N=C1/C=CCCC1
MEASURED_TARGET: Mus musculus
Activity: 4.1
//
COMPOUND: CC1=C(C)/C(=N/O)CCC1
MEASURED_TARGET: Mus musculus
Activity: 1.24
//
COMPOUND: ON=C1CCCCC1 [CYCLOHEXANONE OXIME]
MEASURED_TARGET: Mus musculus
Activity: 0.9
//
COMPOUND: O/N=C\c1ccccc1
MEASURED_TARGET: Mus musculus
Activity: 1.8
//
COMPOUND: CC1=C/C(=N/O)CCC1
MEASURED_TARGET: Mus musculus
Activity: 2.1
//
COMPOUND: C/C=C/C(CC)=N/O
MEASURED_TARGET: Mus musculus
Activity: 0.99
